// provenance: patent US11787796B2

Field: pEC50. Provide a value for each of the molecules that follow.
Target: human activated kallikrein enzyme (Homo sapiens (Human))
Sequence (P03952 391-638): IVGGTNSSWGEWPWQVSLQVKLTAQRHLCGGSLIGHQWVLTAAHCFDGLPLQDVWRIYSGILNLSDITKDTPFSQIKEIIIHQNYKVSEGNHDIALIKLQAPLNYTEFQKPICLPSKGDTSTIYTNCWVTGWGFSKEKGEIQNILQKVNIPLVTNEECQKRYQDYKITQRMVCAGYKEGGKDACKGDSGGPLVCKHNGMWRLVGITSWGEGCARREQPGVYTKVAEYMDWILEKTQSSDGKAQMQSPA
Sequence (P03952 20-390 partner): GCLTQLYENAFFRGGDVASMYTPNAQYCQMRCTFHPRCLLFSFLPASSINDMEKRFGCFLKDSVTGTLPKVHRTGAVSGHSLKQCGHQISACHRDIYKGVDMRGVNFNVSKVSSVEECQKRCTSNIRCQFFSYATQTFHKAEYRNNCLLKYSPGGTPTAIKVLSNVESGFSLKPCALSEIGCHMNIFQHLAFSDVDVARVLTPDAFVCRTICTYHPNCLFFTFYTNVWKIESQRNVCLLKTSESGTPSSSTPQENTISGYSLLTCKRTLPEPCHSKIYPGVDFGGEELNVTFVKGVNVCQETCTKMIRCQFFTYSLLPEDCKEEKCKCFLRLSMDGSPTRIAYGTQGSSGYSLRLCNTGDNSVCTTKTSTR
Experiment: Plasma kallikrein inhibition assay with fluorogenic peptide substrate, 500 pM activated kallikrein format
Assay type: biochemical
Details: 500 pM activated kallikrein; 300 uM Pro-Phe-Arg-7-amido-4-methylcoumarin substrate; 30 min preincubation, 10 min reaction at RT; read-out: Primary Dose Response Assay: Average EC50
pEC50: −log10 of the molar value.

Data request: Reported pEC50 for O=C(O)CCc1cc(C2CC2)cn2cc(Cn3cc(C(=O)NCc4c(-n5cnnn5)ccc(Cl)c4F)nn3)nc12 : what is it?
Data returned: ≥ 9.00

Data request: Which pEC50 is listed for COc1ccc(-c2ccc(C(=O)O)cc2)c(CNC(=O)c2cn(Cc3cn4cc(C5CC5)ccc4n3)nn2)c1F ?
Data returned: 8.00 to 9.00

Data request: What value of pEC50 has been reported for the following molecule? COc1ccc(S(=O)(=O)N(C)C)c(CNC(=O)c2cn(Cc3cn4cc(C5CC5)ccc4n3)nn2)c1F
Data returned: 8.00 to 9.00

Data request: pEC50 lookup needed for Nc1ncc(CNC(=O)c2cn(Cc3cn4cc(C5CC5)ccc4n3)nn2)s1 , thanks.
Data returned: 5.70 to 7.00

Data request: Given the molecule O=C(NCc1cc2c(cn1)NCCO2)c1cn(Cc2cn3cc(C4CC4)ccc3n2)nn1 , what is its reported pEC50?
Data returned: 7.00 to 8.00

Data request: May I ask what pEC50 has been recorded for O=C(NCc1cc2c(cn1)CCCO2)c1cn(Cc2cn3cc(C4CC4)ccc3n2)nn1 ?
Data returned: 5.70 to 7.00

Data request: Record request: pEC50 value, item O=S(=O)(NCCc1ccc(Cl)cc1)c1cnn(Cc2cn3cc(C4CC4)ccc3n2)c1
Data returned: < 5.15

Data request: # input molecule: O=C(NCc1nccc(Cl)n1)c1cn(Cc2cn3cc(C4CC4)ccc3n2)nn1 ; wanted: its pEC50
Data returned: 5.70 to 7.00
